- Tested on: 282377-053-R-J1-PDC complex spheroid viability
- Assay explanation: Anticancer human tumor 282377-053-R-J1-PDC patient-derived colon adenocarcinoma cell line growth inhibition [POLQ]
- Test settings: compound alone; run of 11/06/2023

[
  {
    "Compound": "Cc1cccc(N(C)C(=O)C2C(O)CCN2c2nc(C)cc(C(F)(F)F)c2C#N)c1 (configuration not stated)",
    "IC50": "> 10 µM"
  },
  {
    "Compound": "Nc1ccc(C#CCN(C(=O)Cc2ncc(C(F)(F)F)cc2C(F)(F)F)c2ccc(F)cc2)nn1",
    "IC50": "> 10 µM"
  }
]

---

- Tested on: 282377-053-R-J1-PDC complex spheroid viability
- Assay explanation: Anticancer human tumor 282377-053-R-J1-PDC cell line growth inhibition [POLQ];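 note: spheroids exposed to compounds for seven days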;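 for viability, T/C: 100% = DMSO vehicle control viability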
- Test settings: second compound 0.0316 µM; first compound 3.16 µM; stronger effect = lower value

[
  {
    "Compound": "CCc1cc2c(N3CCc4c(cc(Cn5ccnc5)cc4-c4cn(C)nc4C(F)(F)F)C3=O)ccnc2c(OC)n1 + COC1C(OC(N)=O)C(O)C(Oc2ccc3c(O)c(NC(=O)c4ccc(O)c(CC=C(C)C)c4)c(=O)oc3c2C)OC1(C)C",
    "viability, T/C, %": 135
  },
  {
    "Compound": "O=C(c1cc(Cc2n[nH]c(=O)c3ccccc23)ccc1F)N1CCN(C(=O)C2CC2)CC1 + COC1C(OC(N)=O)C(O)C(Oc2ccc3c(O)c(NC(=O)c4ccc(O)c(CC=C(C)C)c4)c(=O)oc3c2C)OC1(C)C",
    "viability, T/C, %": 79.1
  },
  {
    "Compound": "O=c1[nH]cc(F)c(=O)[nH]1 + Cc1cccc(N(C)C(=O)C2C(O)CCN2c2nc(C)cc(C(F)(F)F)c2C#N)c1",
    "viability, T/C, %": 70.3
  },
  {
    "Compound": "C#Cc1c(F)ccc2cc(O)cc(-c3ncc4c(N5CC6CCC(C5)N6)nc(OCC56CCCN5CC(F)C6)nc4c3F)c12 (stereo not given) + Cc1cccc(N(C)C(=O)C2C(O)CCN2c2nc(C)cc(C(F)(F)F)c2C#N)c1",
    "viability, T/C, %": 68.6
  },
  {
    "Compound": "COc1ccc([C@@H](O)c2cc(-c3ncnc4cc(N5CCOCC5)ccc34)c(F)cc2Cl)nn1 + Cc1cccc(N(C)C(=O)C2C(O)CCN2c2nc(C)cc(C(F)(F)F)c2C#N)c1",
    "viability, T/C, %": 78.3
  }
]

---

The entries below are paired with their reported pIC50.
- Test system: 282377-053-R-J1-PDC complex spheroid viability
- Assay explanation: Anticancer human tumor 282377-053-R-J1-PDC cell line growth inhibition [POLQ];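 note: spheroids exposed to compounds for seven days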
- Test settings: curve of first compound; second compound 0.0316 µM
pIC50: −log10 of the molar value.

[
  {
    "Molecule": "O=c1[nH]cc(F)c(=O)[nH]1 + Cc1cccc(N(C)C(=O)C2C(O)CCN2c2nc(C)cc(C(F)(F)F)c2C#N)c1",
    "pIC50": "< 5.00"
  },
  {
    "Molecule": "C=CCn1c(=O)c2cnc(Nc3ccc(N4CCN(C)CC4)cc3)nc2n1-c1cccc(C(C)(C)O)n1 + COC1C(OC(N)=O)C(O)C(Oc2ccc3c(O)c(NC(=O)c4ccc(O)c(CC=C(C)C)c4)c(=O)oc3c2C)OC1(C)C",
    "pIC50": "< 6.00"
  },
  {
    "Molecule": "CC1COCCN1c1cc(C2(O)CC3CCC(C2)O3)c2cnn(-c3ccn[nH]3)c2n1 (stereo not given) + Nc1ccc(C#CCN(C(=O)Cc2ncc(C(F)(F)F)cc2C(F)(F)F)c2ccc(F)cc2)nn1",
    "pIC50": 5.70
  },
  {
    "Molecule": "CC(C)n1c(=O)n(C)c2cnc3cc(F)c(-c4ccc(OCCCN5CCCCC5)nc4)cc3c21 + Cc1cccc(N(C)C(=O)C2C(O)CCN2c2nc(C)cc(C(F)(F)F)c2C#N)c1",
    "pIC50": "< 5.00"
  },
  {
    "Molecule": "CC(C)n1c(=O)n(C)c2cnc3cc(F)c(-c4ccc(OCCCN5CCCCC5)nc4)cc3c21 + Nc1ccc(C#CCN(C(=O)Cc2ncc(C(F)(F)F)cc2C(F)(F)F)c2ccc(F)cc2)nn1",
    "pIC50": "< 5.00"
  }
]

---

- Tested on: 282377-053-R-J1-PDC complex spheroid viability
- Assay explanation: Anticancer human tumor 282377-053-R-J1-PDC cell line growth inhibition [POLQ];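 note: spheroids exposed to compounds for seven days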
- Test settings: curve of first compound; second compound 0.1 µM
pIC50: −log10 of the molar value.

[
  {
    "Molecule": "CCc1c2c(nc3ccc(O)cc13)-c1cc3c(c(=O)n1C2)COC(=O)[C@]3(O)CC + COC1C(OC(N)=O)C(O)C(Oc2ccc3c(O)c(NC(=O)c4ccc(O)c(CC=C(C)C)c4)c(=O)oc3c2C)OC1(C)C",
    "Limit operator": "=",
    "pIC50": 6.94
  },
  {
    "Molecule": "CCCS(=O)(=O)Nc1ccc(F)c(C(=O)c2c[nH]c3ncc(-c4ccc(Cl)cc4)cc23)c1F + COC1C(OC(N)=O)C(O)C(Oc2ccc3c(O)c(NC(=O)c4ccc(O)c(CC=C(C)C)c4)c(=O)oc3c2C)OC1(C)C",
    "Limit operator": "=",
    "pIC50": 5.39
  },
  {
    "Molecule": "O=C(Nc1ccc(O)c(NS(=O)(=O)c2ccc(F)cc2)c1)c1ccc(-c2ccccc2)cc1 + COC1C(OC(N)=O)C(O)C(Oc2ccc3c(O)c(NC(=O)c4ccc(O)c(CC=C(C)C)c4)c(=O)oc3c2C)OC1(C)C",
    "Limit operator": "<",
    "pIC50": 5.00
  },
  {
    "Molecule": "CNCc1ccc(-c2[nH]c3cc(F)cc4c3c2CCNC4=O)cc1 + Cc1cccc(N(C)C(=O)C2C(O)CCN2c2nc(C)cc(C(F)(F)F)c2C#N)c1",
    "Limit operator": "<",
    "pIC50": 5.00
  },
  {
    "Molecule": "CC1COCCN1c1cc(C2(S(C)(=N)=O)CC2)nc(-c2ccnc3[nH]ccc23)n1 (stereo not given) + Nc1ccc(C#CCN(C(=O)Cc2ncc(C(F)(F)F)cc2C(F)(F)F)c2ccc(F)cc2)nn1",
    "Limit operator": "<",
    "pIC50": 5.00
  },
  {
    "Molecule": "O=C(Nc1ccc(O)c(NS(=O)(=O)c2ccc(F)cc2)c1)c1ccc(-c2ccccc2)cc1 + Cc1cccc(N(C)C(=O)C2C(O)CCN2c2nc(C)cc(C(F)(F)F)c2C#N)c1",
    "Limit operator": "<",
    "pIC50": 5.00
  },
  {
    "Molecule": "CC1COCCN1c1cc(C2(O)CC3CCC(C2)O3)c2cnn(-c3ccn[nH]3)c2n1 (stereo not given) + COC1C(OC(N)=O)C(O)C(Oc2ccc3c(O)c(NC(=O)c4ccc(O)c(CC=C(C)C)c4)c(=O)oc3c2C)OC1(C)C",
    "Limit operator": "=",
    "pIC50": 6.49
  },
  {
    "Molecule": "CCc1cc2c(N3CCc4c(cc(Cn5ccnc5)cc4-c4cn(C)nc4C(F)(F)F)C3=O)cc(C)nc2c(OC)n1 + COC1C(OC(N)=O)C(O)C(Oc2ccc3c(O)c(NC(=O)c4ccc(O)c(CC=C(C)C)c4)c(=O)oc3c2C)OC1(C)C",
    "Limit operator": "<",
    "pIC50": 5.00
  },
  {
    "Molecule": "CC1COCCN1c1cc(-c2ccnn2C)c2ccnc(-c3ccn[nH]3)c2n1 (stereo not given) + Cc1cccc(N(C)C(=O)C2C(O)CCN2c2nc(C)cc(C(F)(F)F)c2C#N)c1",
    "Limit operator": "=",
    "pIC50": 6.26
  },
  {
    "Molecule": "COc1cc(C2c3cc4c(cc3C(OC3OC5COC(C)OC5C(O)C3O)C3COC(=O)C23)OCO4)cc(OC)c1O (stereo not given) + Nc1ccc(C#CCN(C(=O)Cc2ncc(C(F)(F)F)cc2C(F)(F)F)c2ccc(F)cc2)nn1",
    "Limit operator": "<",
    "pIC50": 5.00
  }
]

---

- Tested on: 282377-053-R-J1-PDC complex spheroid viability
- Assay explanation: Anticancer human tumor 282377-053-R-J1-PDC cell line growth inhibition [POLQ];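 note: spheroids exposed to compounds for seven days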;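 for viability, T/C: 100% = DMSO vehicle control viability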
- Test settings: second compound 3.16 µM; first compound 10 µM; stronger effect = lower value

[
  {
    "Molecule": "CCc1cc2c(N3CCc4c(cc(Cn5ccnc5)cc4-c4cn(C)nc4C(F)(F)F)C3=O)cc(C)nc2c(OC)n1 + Nc1ccc(C#CCN(C(=O)Cc2ncc(C(F)(F)F)cc2C(F)(F)F)c2ccc(F)cc2)nn1",
    "viability, T/C": "108%"
  },
  {
    "Molecule": "CC1COCCN1c1cc(-c2ccnn2C)c2ccnc(-c3ccn[nH]3)c2n1 (stereo not given) + COC1C(OC(N)=O)C(O)C(Oc2ccc3c(O)c(NC(=O)c4ccc(O)c(CC=C(C)C)c4)c(=O)oc3c2C)OC1(C)C",
    "viability, T/C": "22.6%"
  },
  {
    "Molecule": "C#Cc1c(F)ccc2cc(O)cc(-c3ncc4c(N5CC6CCC(C5)N6)nc(OCC56CCCN5CC(F)C6)nc4c3F)c12 (stereo not given) + Cc1cccc(N(C)C(=O)C2C(O)CCN2c2nc(C)cc(C(F)(F)F)c2C#N)c1",
    "viability, T/C": "74.3%"
  },
  {
    "Molecule": "CCc1cc2c(N3CCc4c(cc(Cn5ccnc5)cc4-c4cn(C)nc4C(F)(F)F)C3=O)cc(C)nc2c(OC)n1 + COC1C(OC(N)=O)C(O)C(Oc2ccc3c(O)c(NC(=O)c4ccc(O)c(CC=C(C)C)c4)c(=O)oc3c2C)OC1(C)C",
    "viability, T/C": "73.8%"
  },
  {
    "Molecule": "C#Cc1c(F)ccc2cc(O)cc(-c3ncc4c(N5CC6CCC(C5)N6)nc(OCC56CCCN5CC(F)C6)nc4c3F)c12 (stereo not given) + Nc1ccc(C#CCN(C(=O)Cc2ncc(C(F)(F)F)cc2C(F)(F)F)c2ccc(F)cc2)nn1",
    "viability, T/C": "96.3%"
  }
]
